Items are presented alongside their recorded refractive index.
# assayRemarks: refractive index (Na D-line) (dimensionless)
# particulars: 298.15 K; 101.33 kPa; Liquid; Standard Abbe refractometry

# compound, refractive index
data = [
    ("CCCCCCCC[n+]1ccn(C)c1.F[B-](F)(F)F [1-methyl-3-octylimidazolium tetrafluoroborate]", 1.43329),
    ("c1ccsc1", 1.52581),
    ("CC1CCCCC1", 1.42048),
    ("CCCCCCCCn1cc[n+](C)c1.O=S(=O)([N-]S(=O)(=O)C(F)(F)F)C(F)(F)F", 1.43331),
]

---

Items are presented alongside their recorded mass density.
# particulars: 298.15 K; 101.33 kPa; Liquid; Vibrating tube method

# compound, readoutUnits, mass density
data = [
    ("c1ccsc1 [thiophene]", "kg/m3", 1058.5),
    ("CC1CCCCC1 [methylcyclohexane]", "kg/m3", 764.97),
    ("CCCCCCCC[n+]1ccn(C)c1.F[B-](F)(F)F [1-methyl-3-octylimidazolium tetrafluoroborate]", "kg/m3", 1104.42),
    ("CCCCCCCCn1cc[n+](C)c1.O=S(=O)([N-]S(=O)(=O)C(F)(F)F)C(F)(F)F", "kg/m3", 1320.76),
]
